Sourced from patent US9663460B2

Molecular target: UniProt P41597
Sequence (P41597 whole entry, species assumed): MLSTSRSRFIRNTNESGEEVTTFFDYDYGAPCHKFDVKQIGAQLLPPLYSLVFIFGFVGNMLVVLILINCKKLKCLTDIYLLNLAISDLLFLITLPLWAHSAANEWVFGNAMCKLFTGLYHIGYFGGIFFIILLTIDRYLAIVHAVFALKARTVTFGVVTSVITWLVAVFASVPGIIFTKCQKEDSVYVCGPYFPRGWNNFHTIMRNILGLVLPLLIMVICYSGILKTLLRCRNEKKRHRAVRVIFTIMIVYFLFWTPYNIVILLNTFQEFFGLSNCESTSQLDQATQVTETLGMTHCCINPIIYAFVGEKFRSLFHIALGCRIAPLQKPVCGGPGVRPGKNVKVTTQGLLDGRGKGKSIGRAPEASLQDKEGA
Assay: Calcium activity assayed on the FLIPR Tetra in HEK-Gqi5 cells stably expressing CCR2
Format: cell-based
Details: FLIPR Tetra calcium assay
Description: HEK-Gqi5 cells stably expressing CCR2 were cultured in (DMEM high glucose, 10% FBS, 1% PSA, 400 μg/ml geneticin and 50 μg/ml hygromycin. Appropriate positive control chemokines (MCP-1, MIP1A or RANTES) was used as the positive control agonist for screening compound-induced calcium activity assayed on the FLIPR^Tetra. The drug plates were prepared in 384-well microplates using the EP3 and the MuItiPROBE robotic liquid handling systems. Compounds were synthesized and tested for CCR^2 activity.
pIC50: −log10 of the molar value.
Metric: pIC50

Here is how some compounds turned out for pIC50.
[[record]]
smiles_data = "O=S(=O)(Cc1ncc[nH]1)c1ccc(Cl)cc1NS(=O)(=O)c1ccc(Cl)c(C(F)(F)F)c1"
measured_result = 6.60

[[record]]
smiles_data = "COc1ccc(S(=O)(=O)Cc2cccc(N)c2)c(NS(=O)(=O)c2cc3ccccc3o2)c1"
measured_result = 6.75


I: O=S(=O)(Cc1ccc[n+]([O-])c1)c1ccc(Cl)cc1NS(=O)(=O)c1cc2ccccc2o1
II: O=S(=O)(CCc1ccccn1)c1ccc(Cl)cc1NS(=O)(=O)c1cc2ccccc2o1
Rank I against II by their pIC50 values and give the higher one. The response must carry the label of the picked entry. II
(II: 6.71, I: 5.76)
